Where do these numbers come from? They come from patent US9938322B2.

system: human red blood cells (hRBC); assay: Hemolysis of human red blood cells; format: cell-based; details: red cells of human, 1 h, 100
Where a SMILES comes first, the peptide text is derived from it. [ ]: non-standard residue; d: D form. Tle = CC(C)(C)[C@H](N)C(=O)O; dDab = NCC[C@@H](N)C(=O)O; Orn = NCCC[C@H](N)C(=O)O; Dab = NCC[C@H](N)C(=O)O
Hemolysis at 100 μg/ml by entry:
Output should be the measured figure followed by the unit it is expressed in.

| COMPOUND | MEAS VALUE |
| --- | --- |
| CC(C)C[C@@H]1NC(=O)[C@@H]2CCCN2C(=O)[C@H]2CCCN2C(=O)[C@H](CO)NC(=O)[C@H](CCN)NC(=O)[C@H](C(C)(C)C)NC(=O)[C@H](CCN)NC(=O)[C@H](Cc2c[nH]c3ccccc23)NC(=O)[C@H](CCN)NC(=O)[C@@H](CCN)NC(=O)[C@H](CCCN)NC(=O)[C@H](CCN)NC(=O)[C@H](Cc2ccc(O)cc2)NC(=O)[C@H](CC(=O)O)NC1=O [compound 114] (cyclo(LDY[Dab][Orn][dDab][Dab]W[Dab][Tle][Dab]S[dP]P)) | 0.5% |

Next up:
Output measured Hemolysis at 100 μg/ml for this item: COc1ccc(C[C@@H]2NC(=O)[C@H](CCN)NC(=O)[C@H](Cc3c[nH]c4ccccc34)NC(=O)[C@H](CCN)NC(=O)[C@@H](CCN)NC(=O)[C@H](CCCN)NC(=O)[C@H](CCN)NC(=O)[C@H](Cc3ccc(O)cc3)NC(=O)[C@H](CO)NC(=O)[C@H](CC(C)C)NC(=O)[C@@H]3CCCN3C(=O)[C@H]3CCCN3C(=O)[C@H](CO)NC(=O)[C@H](C)NC2=O)cc1 [compound 32] (cyclo(LSY[Dab][Orn][dDab][Dab]W[Dab]Y(Me)AS[dP]P)) 1%
